- experimental system: Ataxin-2 (Homo sapiens) (UniProt Q99700)
- Sequence (Q99700 whole entry): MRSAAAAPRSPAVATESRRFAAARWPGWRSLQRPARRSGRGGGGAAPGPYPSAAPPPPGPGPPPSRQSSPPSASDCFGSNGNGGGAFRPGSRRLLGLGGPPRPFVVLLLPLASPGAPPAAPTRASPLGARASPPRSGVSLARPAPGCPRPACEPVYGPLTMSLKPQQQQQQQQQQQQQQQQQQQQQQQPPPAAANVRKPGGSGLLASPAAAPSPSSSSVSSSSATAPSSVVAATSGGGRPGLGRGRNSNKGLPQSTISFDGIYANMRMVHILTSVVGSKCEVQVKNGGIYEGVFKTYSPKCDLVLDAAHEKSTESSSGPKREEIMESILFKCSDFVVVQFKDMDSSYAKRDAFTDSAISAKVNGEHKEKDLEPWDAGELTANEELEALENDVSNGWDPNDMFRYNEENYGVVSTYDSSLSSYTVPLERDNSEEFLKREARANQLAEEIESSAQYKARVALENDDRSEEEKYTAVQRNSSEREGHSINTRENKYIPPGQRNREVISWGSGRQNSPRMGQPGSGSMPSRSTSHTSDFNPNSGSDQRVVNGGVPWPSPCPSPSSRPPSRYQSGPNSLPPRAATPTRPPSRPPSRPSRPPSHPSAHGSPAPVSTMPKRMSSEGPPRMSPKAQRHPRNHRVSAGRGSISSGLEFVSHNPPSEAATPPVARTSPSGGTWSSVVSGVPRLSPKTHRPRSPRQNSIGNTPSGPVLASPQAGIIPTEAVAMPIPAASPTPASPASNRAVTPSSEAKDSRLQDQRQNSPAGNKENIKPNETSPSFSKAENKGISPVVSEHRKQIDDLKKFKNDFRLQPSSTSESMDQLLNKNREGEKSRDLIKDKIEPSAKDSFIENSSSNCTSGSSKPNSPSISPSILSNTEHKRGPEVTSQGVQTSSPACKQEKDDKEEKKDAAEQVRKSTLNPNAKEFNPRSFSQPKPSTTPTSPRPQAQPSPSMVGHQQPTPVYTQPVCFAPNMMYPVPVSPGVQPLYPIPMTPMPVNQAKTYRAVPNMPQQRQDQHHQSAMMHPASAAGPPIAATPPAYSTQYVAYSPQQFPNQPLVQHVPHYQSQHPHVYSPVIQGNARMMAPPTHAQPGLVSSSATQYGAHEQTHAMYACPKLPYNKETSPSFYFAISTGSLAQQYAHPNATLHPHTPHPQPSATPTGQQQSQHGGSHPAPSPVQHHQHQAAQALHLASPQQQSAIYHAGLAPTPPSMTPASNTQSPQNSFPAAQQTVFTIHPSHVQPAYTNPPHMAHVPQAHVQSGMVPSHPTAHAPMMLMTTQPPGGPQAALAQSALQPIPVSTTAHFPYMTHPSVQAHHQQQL
- measurement notes: qHTS for Inhibitors of ATXN expression.
- Format: functional
About 2,100 (0.53%) of roughly 400,000 compounds were called active. Roughly 14% stayed inconclusive and do not appear here. No rule for the calls is given here. The entries come from a sample that favours actives as a whole.
Form entry, call: pick from yes for active, no for inactive

I'd appreciate the recorded outcome for Nc1nnnn1/N=C/c1cc(Cl)cc(Cl)c1O from this test.
no

For O=C(OCCN1C(=O)c2cccc3c(N4CCOCC4)ccc(c23)C1=O)c1ccc(Cl)cc1 , which call appears in the assay record?
no

What is the recorded call for this compound in the test? Cc1ccc(S(=O)(=O)Nc2ccccc2/C=N/c2nc3ccccc3n2C(C)C)cc1
no

In this assay, the call recorded for COc1cc(C(=S)N2CCOCC2)ccc1OC(=O)c1ccc(Br)cc1 was what?
no

Kindly provide the recorded test outcome for the following compound: CCN1CCN(Cc2c(O)ccc3c2O/C(=C\c2ccccc2)C3=O)CC1
no

Returns: the outcome recorded for O=c1c2cc(F)ccc2sn1-c1ccc(F)cc1 in this assay.
yes

Given C=CCN1C(=O)/C(=C2\C(=O)Nc3ccccc32)S/C1=N/c1ccc(O)cc1 , state the outcome it received in this test.
yes

Which outcome was entered for the compound COCCNc1oc(/C=C/c2ccccc2)nc1C#N in this test?
no

So what was the verdict on Cn1cc(C(=O)N2CCN(c3cccc(C(F)(F)F)c3)CC2)c2c3ccccc3n(C)c2c1=O in this test?
yes

Given O=C(c1cccc(Cl)c1)N(Cc1ccco1)C1CCS(=O)(=O)C1 (centres undefined) , state the outcome it received in this test.
no

Would you mind telling me which call this test gave Cc1ccc(C)c(OC(C)C(=O)Nc2ccc(S(=O)(=O)Nc3nccs3)cc2)c1 (centres undefined) ?
no

Per the records of this test, what outcome belongs to O=[N+]([O-])c1ccc(-c2ccc(/C=N/Nc3nc(N4CCCCC4)nc(N4CCCCC4)n3)o2)cc1 ?
no

Outcome logged for O=C(COC(=O)COc1cccc2ccccc12)NCC(F)(F)F in this assay:
no

Called result for Cc1ccc(-c2ccc(CN3C(CC(C)C)C(=O)N(Cc4cn(CCC5OCCCO5)nn4)CCS3(=O)=O)cc2)cc1 (centres undefined)
yes

====

- experimental system: Ataxin-2 (Homo sapiens) (UniProt Q99700)
- measurement notes: qHTS for Inhibitors of ATXN expression.
- Assay type: functional
About 2,100 (0.53%) of roughly 400,000 compounds were called active. Not shown: some 14% with an inconclusive outcome. How the calls were made is not given here. The list comes from a sample in which actives are over-represented; it also holds close analogues and randomly drawn compounds.
Use one of these outcomes when replying: active, inactive

Please share the test call associated with CCOC(=O)c1sc2nc(C)nc(Nc3ccc(OC)c(OC)c3)c2c1C .
inactive

Can you look up the reported call for CCCOc1ccc(C2C(C(=O)OC)=CN(CCOC)C=C2C(=O)OC)cc1 for me?
inactive

I would be grateful if you could indicate the recorded call for CCOc1ccc(NC(=O)CN2CCN(CC(=O)Nc3ccccc3OC)CC2)cc1 .
inactive

Assay outcome for COc1cccc(/C=C/C(=O)c2ccc(NC3=NCCCS3)cc2)c1 : what was it?
active

// outcome(item) with item = N#Cc1nc(/C=C/c2ccc(F)cc2)oc1N1CCCCCC1
inactive

Given Cc1cc(=O)oc2c3c(ccc12)OCN(Cc1ccc(Cl)cc1)C3 , state the outcome it received in this test.
inactive

// outcome(item) with item = O=C1C=C(NCCc2ccccc2)C2(CCCCC2)O1
inactive

Outcome logged for COc1ccc(-c2csc(-c3cc4ccccc4oc3=N)n2)cc1 in this assay:
inactive

Answer briefly: the call reported for COc1cccc(/C=C/c2nc(C#N)c(NCC(C)C)o2)c1 in this assay.
inactive

Recorded test outcome, item CCc1nnc(NS(=O)(=O)c2ccc(N/C=C\C(=O)c3cccc(OC)c3)cc2)s1
inactive

State the result this test recorded for COc1ccccc1-c1sc2ccccc2c1-c1ccc(OCCN2CCCCC2)cc1 .
active

Tell me the recorded outcome of this test for CCC1CSC(Nc2ccc(C(=O)/C=C/c3ccc(OC)c(OC)c3)cc2)=N1 (centres undefined) .
active

Identify the outcome logged in this assay for the compound shown: Cc1cccc(NC(=O)CSc2cccc3cccnc23)c1
active

For c1ccc2c(-c3ccc(OCCN4CCCCC4)cc3)c(-c3ccsc3)sc2c1 , which call appears in the assay record?
active
